# assay.remarks: suppressors of polyglutamine aggregation in yeast, 75Q-TubH (AID 1616)
# condition.details: S. cerevisiae 75Q-TubH polyglutamine aggregation suppression; stronger effect = higher value
Would you mind labelling by aggregation suppression score? At or over 1 is Met, under is Not met.

# check: aggregation suppression score of CCC1(CCC(C)C)C(=O)NC(=O)NC1=O is greater than or equal to 1
Met

Can CN1C2CCC1C(C(=O)O)C(OC(=O)c1ccccc1)C2 (configuration not stated) be said to have aggregation suppression score at or above 1?
Met

Record CO[C@@H]1C[C@@H](C[C@H]2CC[C@H](C)[C@H]([C@@H](C)C(=O)O)O2)O[C@]2(O[C@](C)([C@H]3CC[C@@](C)(C4O[C@@H](C5O[C@@](O)(CO)[C@H](C)C[C@@H]5C)C[C@@H]4C)O3)C[C@H]2C)[C@@H]1C (some centres not stated) ; criterion: aggregation suppression score no lower than 1. Met?
Not met

Tell me whether aggregation suppression score is at least 1 here: C[CH2][Hg][S]c1ccccc1C(=O)O
Not met

Hello, I need to know if NC(=O)CN1CCCC1=O has measured aggregation suppression score not below 1. Thanks!
Met

Has O=C1C=CC(=O)c2c(O)cccc21 a recorded aggregation suppression score greater than or equal to 1?
Not met

Decide: is the reported value of aggregation suppression score for NCCc1c[nH]c2ccccc12 equal to or greater than 1?
Met

Hi team, for CC(CCc1ccccc1)NC(C)C(O)c1ccc(O)cc1 (configuration not stated) , is the recorded aggregation suppression score at or above 1?
Met

Textbook exercise: given the entry COC(=O)C1C(OC(=O)c2ccccc2)CC2CCC1N2C (configuration not stated) , state whether its aggregation suppression score is greater than or equal to 1.
Met

Can CCC(=O)O[C@H]1CCC2C3CCC4=CC(=O)CC[C@]4(C)C3CC[C@@]21C (some centres not stated) be said to have aggregation suppression score at or above 1?
Not met

Does aggregation suppression score meet or surpass 1 for C=CCC1(CC(C)C)C(=O)NC(=O)NC1=O ?
Met

hey, is aggregation suppression score for this one >= 1? NC(=O)c1cc([N+](=O)[O-])cc([N+](=O)[O-])c1
Met

Entry C=CCN1CC[C@]23c4c5ccc(O)c4OC2C(=O)CC[C@@]3(O)[C@H]1C5 (some centres not stated) : is its aggregation suppression score no less than 1?
Met

Please check the record CC[C@H]1CN2CCC1C[C@@H]2[C@@H](O)c1ccnc2ccc(OC)cc12 (some centres not stated) and state if its aggregation suppression score is at or above 1.
Met

Answer whether aggregation suppression score of CO[C@H]1[C@H](O)[C@@H](O[C@H]2CC[C@]3(C=O)C4CC[C@]5(C)[C@@H](C6=CC(=O)OC6)CC[C@]5(O)C4CC[C@@H]3C2)O[C@@H](C)[C@@H]1O (some centres not stated) is greater than or equal to 1.
Met

Item COc1cc(CCN)cc(OC)c1OC with aggregation suppression score of 1 or above?
Met

###

# Test system: Aerobactin synthetase IucA (Klebsiella pneumoniae, hypervirulent)
# assay.remarks: IucA enzyme inhibition, biochemical, LOPAC library, absorbance readout (AID 1346212);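 note: 100% = no compound wells and 0% = no enzyme wells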
# condition.details: IucA enzyme assay, absorbance (OD) readout; stronger effect = lower value; concentration not given here
observable: remaining activity (%)
API: value field is a number in %; no unit string.

Tell us which remaining activity value is on record for O=c1onc2n1-c1cc(Br)ccc1OC2
105

Respond only with remaining activity recorded for N#C/C(=C\c1ccc(O)c(O)c1)C(=O)NCCCc1ccccc1
103

State, in one line, measured remaining activity of CCCCCCN(CCCCCC)C(=O)Cc1c(-c2ccc(F)cc2)[nH]c2ccccc12
97.1

Specify measured remaining activity for CC(C)C[C@H](NC(=O)[C@H](O)[C@H](N)Cc1ccccc1)C(=O)O .
120

Please give measured remaining activity of the following entry: Cc1ccc(Cl)c(Nc2ccccc2C(=O)O)c1Cl
128

For the molecule COc1cccc(NC(=O)/C=C/c2ccc(Cl)cc2)c1 , give its reported remaining activity.
101

Write down remaining activity measured for item Brc1ccc([C@H]2CN3CCSC3=N2)cc1
105

Please report the measured remaining activity for CCCC(=O)NCCc1c2n(c3ccc(OC)cc13)CCCc1ccccc1-2
116

Write down remaining activity measured for item CC(=O)[C@H]1CCC2C3CC[C@H]4C[C@H](O)CC[C@]4(C)C3CC[C@@]21C (some centres undefined)
95.7

Data credit: PubChem BioAssay
